Entry source: patent US20080090847A1

- EXPERIMENTAL SYSTEM: Staph ligase (D-Ala-D-Ala ligase) (Staphylococcus aureus, UniProt Q5HEB7)
- Sequence (Q5HEB7 whole entry): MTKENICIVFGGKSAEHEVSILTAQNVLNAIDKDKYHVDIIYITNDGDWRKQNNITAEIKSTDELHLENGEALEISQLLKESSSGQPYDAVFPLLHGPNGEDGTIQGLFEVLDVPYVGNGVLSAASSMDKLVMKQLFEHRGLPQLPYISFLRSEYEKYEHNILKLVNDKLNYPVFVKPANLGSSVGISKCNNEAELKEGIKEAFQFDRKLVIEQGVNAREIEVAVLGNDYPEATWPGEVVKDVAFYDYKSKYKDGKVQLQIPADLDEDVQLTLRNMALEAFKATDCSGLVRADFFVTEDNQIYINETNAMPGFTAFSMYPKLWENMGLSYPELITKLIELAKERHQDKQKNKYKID
- EXPERIMENTAL DETAILS: D-Ala-D-Ala ligase Ki determination (PK/LDH coupled assay), Staph ligase
- Type: biochemical
- CONDITION DESCRIPTION: Table 3; Ki/ATP, avg; read-out: Staph ligase Ki/ATP (uM) avg
OBSERVABLE: Ki (µM)
Respond numerically; units are µM and should not be typed.

> print(dat)
                      smiles.representation  unit.annotation  value.reported
1  CCOc1ccc2ccccc2c1CN(CCC(=O)NCc1ccc(N)cc1)c1ncc2c(N)nc(N)nc2n1               µM             1.2
2  CCOc1ccc2ccccc2c1CN(CCC(=O)NCCN)c1ncc2c(N)nc(N)nc2n1               µM             4.7
3  CCOc1ccc2ccccc2c1CN(CCC(=O)NCc1cccc(CN)c1)c1ncc2c(N)nc(N)nc2n1               µM             0.9
4  CCOc1ccc2ccccc2c1CN(CCC(=O)NCC(=N)N)c1ncc2c(N)nc(N)nc2n1               µM             6.3
5  CCOc1ccc2ccccc2c1CN(CCC(=O)NCc1ccccn1)c1ncc2c(N)nc(N)nc2n1               µM             9.5

Next molecule, Ki to be filled in.
Request: GET /values?readout=Ki&item= `CCOc1ccc2ccccc2c1CN(CCC(=O)N1CCOCC1)c1ncc2c(N)nc(N)nc2n1`
Response: 3.8

###

- EXPERIMENTAL SYSTEM: H. Influenzae ligase (D-Ala-D-Ala ligase) (Haemophilus influenzae, UniProt P44405)
- Sequence (P44405 whole entry): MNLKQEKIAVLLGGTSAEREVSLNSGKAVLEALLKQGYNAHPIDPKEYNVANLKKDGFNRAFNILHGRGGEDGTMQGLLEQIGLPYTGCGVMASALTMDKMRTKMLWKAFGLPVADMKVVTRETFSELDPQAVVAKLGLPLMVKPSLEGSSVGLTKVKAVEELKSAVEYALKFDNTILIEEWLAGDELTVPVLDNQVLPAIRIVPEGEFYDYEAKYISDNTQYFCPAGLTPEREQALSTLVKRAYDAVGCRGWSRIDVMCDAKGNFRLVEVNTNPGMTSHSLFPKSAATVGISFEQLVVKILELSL
- EXPERIMENTAL DETAILS: D-Ala-D-Ala ligase Ki determination (PK/LDH coupled assay), H. influenzae ligase
- Assay type: biochemical
- CONDITION DESCRIPTION: Table 4; Ki/ATP, avg; read-out: H. Influenzae ligase Ki/ATP (uM) avg
Recorded Ki, one value per entry.
Please provide the amount together with its unit, number first.

> print(dat)
                                   molecule  observable  value.reported
1  C[C@@H](c1cccc2ccccc12)N(CCC(=O)O)c1ncc2c(N)nc(N)nc2n1          Ki          5.7 µM
2  CCOc1ccc2ccccc2c1CN(CCC(=O)O)c1ncc2c(N)nc(N)nc2n1          Ki          3.7 µM

Next molecule, Ki to be filled in.
Request: # query: Ki | item C[C@@H](c1cccc2ccccc12)N(CC(O)C(=O)O)c1ncc2c(N)nc(N)nc2n1 (stereo partly drawn) | system: H. Influenzae ligase (D-Ala-D-Ala ligase) (Haemophilus influenzae, UniProt P44405)
Response: 3.5 µM

###

- EXPERIMENTAL SYSTEM: E. coli ligase (D-Ala-D-Ala ligase) (Escherichia coli, UniProt P07862)
- EXPERIMENTAL DETAILS: D-Ala-D-Ala ligase Ki determination (PK/LDH coupled assay), E. coli ligase
- Type: biochemical
- CONDITION DESCRIPTION: E. coli ligase Ki/ATP (uM) avg, Table 4; Ki/ATP, avg
OBSERVABLE: Ki (µM)
Respond numerically; units are µM and should not be typed.

Consider the reported Ki for these molecules:
> print(dat)
                                   molecule  value.reported
1  C[C@@H](c1cccc2ccccc12)N(CC(O)C(=O)O)c1ncc2c(N)nc(N)nc2n1 (stereo partly shown)             1.4
2  C[C@@H](c1cccc2ccccc12)N(CCC(=O)O)c1ncc2c(N)nc(N)nc2n1             4.2
3  CCOc1ccc2ccccc2c1CN(CCC(=O)O)c1ncc2c(N)nc(N)nc2n1             5.3

Next molecule, Ki to be filled in.
Request: GET /values?readout=Ki&item= C[C@@H](c1cccc2ccccc12)N(C[C@@H](O)C(=O)O)c1ncc2c(N)nc(N)nc2n1 (racemic)
Response: 0.611

###

Recorded Ki, one value per entry.
- EXPERIMENTAL SYSTEM: E. coli ligase (D-Ala-D-Ala ligase) (Escherichia coli)
- EXPERIMENTAL DETAILS: D-Ala-D-Ala ligase Ki determination (PK/LDH coupled assay), E. coli ligase
- Format: biochemical
- CONDITION DESCRIPTION: Table 1; read-out: Ki (E. coli ligase)/μM
Respond numerically; units are µM and should not be typed.

> print(dat)
                                   molecule  unit.annotation  value.reported
1  CC1C(C)N(c2ncc3c(N)nc(N)nc3n2)C(C)C(C)N1c1ncc2c(N)nc(N)nc2n1 (stereo not drawn)               µM               2

Next molecule, Ki to be filled in.
Request: GET /values?readout=Ki&item= `Nc1nc(N)c2cnc(N3C4CC3N4c3ccc(Cl)cc3)nc2n1`
Response: 12

###

- EXPERIMENTAL SYSTEM: E. coli ligase (D-Ala-D-Ala ligase) (Escherichia coli)
- EXPERIMENTAL DETAILS: D-Ala-D-Ala ligase Ki determination (PK/LDH coupled assay), E. coli ligase
- Format: biochemical
- CONDITION DESCRIPTION: Table 1; read-out: Ki (E. coli ligase)/μM
OBSERVABLE: log10(Ki) (log10 of the value in µM)
Lab note - Ki converted to log10 from values in µM.

Consider the reported log10(Ki) for these compounds:
> print(dat)
                                  compound                       experimental.system  value.reported
1        Nc1nc(N)c2cnc(/C=C/c3ccccc3)nc2n1  E. coli ligase (D-Ala-D-Ala ligase) (Escherichia coli)            1.15
2       Nc1nc(N)c2cnc(CSc3ccc(Cl)cc3)nc2n1  E. coli ligase (D-Ala-D-Ala ligase) (Escherichia coli)            1.08
3  Nc1nc(N)c2cnc(N[C@H]3CCCc4ccccc43)nc2n1  E. coli ligase (D-Ala-D-Ala ligase) (Escherichia coli)            1.20
4  CN(Cc1cnc2ccccc2c1)c1ncc2c(N)nc(N)nc2n1  E. coli ligase (D-Ala-D-Ala ligase) (Escherichia coli)            0.00

Request: GET /values?readout=log10(Ki)&item= `Nc1nc(N)c2cnc(N(CCCO)Cc3ccccc3)nc2n1`
Response: 1.15

Request: Next: `Nc1nc(N)c2cnc(NCCNC(=O)c3c(Cl)cccc3Cl)nc2n1`
Response: 1.08

Request: Next: CC(c1cccc2ccccc12)N(CCCCN)c1ncc2c(N)nc(N)nc2n1 (centres unmarked) [drawing 41]
Response: -0.89

Request: Next: `Cc1ccc(C(C)C)cc1OCc1ncc2c(N)nc(N)nc2n1`
Response: 1.30

Request: Next: `CC(C)c1nc2nc(N)nc(N)c2nc1C(C)C`
Response: 1.57

Request: Next: `Nc1nc(N)c2cc(NCc3ccc(C(=O)NCc4ccccn4)cc3)ccc2n1`
Response: 1.86

Request: Next: Nc1nc(N)c2ncc(CNC(CO)CSCc3ccccc3)nc2n1 (centres unmarked)
Response: 1.74

###

- EXPERIMENTAL SYSTEM: H. Influenzae ligase (D-Ala-D-Ala ligase) (Haemophilus influenzae)
- EXPERIMENTAL DETAILS: D-Ala-D-Ala ligase Ki determination (PK/LDH coupled assay), H. influenzae ligase
- Type: biochemical
- CONDITION DESCRIPTION: read-out: activity against H. influenzae (ligase)
OBSERVABLE: pKi
In plain terms, pKi is the concentration in mol/L turned into minus its base-10 logarithm.

Request: GET /values?readout=pKi&item= CCOc1ccc2ccccc2c1CN(CC(O)C(=O)O)c1ncc2c(N)nc(N)nc2n1 (stereo not shown)
Response: 6.25

###

- EXPERIMENTAL SYSTEM: UniProt:P07862
- EXPERIMENTAL DETAILS: D-Ala-D-Ala ligase Ki determination (PK/LDH coupled assay), E. coli ligase
- Type: biochemical
- CONDITION DESCRIPTION: E. coli ligase (μM), Table 2
Recorded Ki, one value per entry.
Respond numerically; units are µM and should not be typed.

Consider the reported Ki for these compounds:
> print(dat)
                                   compound  experimental.system  observable  value.reported
1  CCC(c1cccc2ccccc12)N(C)c1ncc2c(N)nc(N)nc2n1 (centres unmarked)       UniProt:P07862          Ki           0.452
2  CCN(c1ncc2c(N)nc(N)nc2n1)[C@H](C)c1ccc(C)c2ccccc12       UniProt:P07862          Ki           0.102
3  Cc1ccc(C(C)N(C)c2ncc3c(N)nc(N)nc3n2)c2ccccc12 (centres unmarked)       UniProt:P07862          Ki           0.277

Request: GET /values?readout=Ki&item= `Cc1ccc([C@@H](C)N(CC2CC2)c2ncc3c(N)nc(N)nc3n2)c2ccccc12`
Response: 0.174

Request: Next: CC(c1ccc(Cl)c2ccccc12)N(C)c1ncc2c(N)nc(N)nc2n1 (centres unmarked)
Response: 0.201

Request: Next: CCN(c1ncc2c(N)nc(N)nc2n1)C(C)c1ccc(C)c2ccccc12 (centres unmarked)
Response: 0.21

Request: Next: `C[C@H](c1ccc(F)c2ccccc12)N(C)c1ncc2c(N)nc(N)nc2n1`
Response: 0.104

Request: Next: CC(c1cccc2ccccc12)N(C)c1ncc2c(N)nc(N)nc2n1 (centres unmarked)
Response: 0.718
